Method Notes: in vivo
Condition Info: male, CD-1, mouse, iv, 2 mg/kg
Metric: clearance
Hi, when you answer, please include the unit after the number. Thanks!

CC[C@@]1(O)C(=O)OCc2c1cc1n(c2=O)Cc2c-1c(=O)c1cc(F)ccc1n2[C@@H]1CCN(CCO)C1 [Example 252]    49.2 mL/min/kg

// below: clearance requested for another molecule
Which clearance value belongs to CC[C@@]1(O)C(=O)OCc2c1cc1n(c2=O)Cc2c-1c(=O)c1cc(F)ccc1n2[C@@H]1CCN(C)C1 [Example 250] ?
62.9 mL/min/kg

###

Method Notes: in vivo
Condition Info: male, CD-1, mouse, iv, 1 mg/kg
Metric: clearance (mL/min/kg)
Answer with a number only, understood to be in mL/min/kg.

CC[C@@]1(O)C(=O)OCc2c1cc1n(c2=O)Cc2c-1c(=O)c1cc(F)ccc1n2[C@@H]1CCN(C2CCCC2)C1    47.4

// below: clearance requested for another compound
Which clearance value belongs to "CC[C@@]1(O)C(=O)OCc2c1cc1n(c2=O)Cc2c-1c(=O)c1cc(F)ccc1n2[C@@H]1CCN(CC2CC2)C1" ?
31.8
